Origin of measurements: paper PMC4828684

target: S. cerevisiae Acs1 (acetyl CoA synthetase) (Saccharomyces cerevisiae)
Sequence (Q01574 whole entry): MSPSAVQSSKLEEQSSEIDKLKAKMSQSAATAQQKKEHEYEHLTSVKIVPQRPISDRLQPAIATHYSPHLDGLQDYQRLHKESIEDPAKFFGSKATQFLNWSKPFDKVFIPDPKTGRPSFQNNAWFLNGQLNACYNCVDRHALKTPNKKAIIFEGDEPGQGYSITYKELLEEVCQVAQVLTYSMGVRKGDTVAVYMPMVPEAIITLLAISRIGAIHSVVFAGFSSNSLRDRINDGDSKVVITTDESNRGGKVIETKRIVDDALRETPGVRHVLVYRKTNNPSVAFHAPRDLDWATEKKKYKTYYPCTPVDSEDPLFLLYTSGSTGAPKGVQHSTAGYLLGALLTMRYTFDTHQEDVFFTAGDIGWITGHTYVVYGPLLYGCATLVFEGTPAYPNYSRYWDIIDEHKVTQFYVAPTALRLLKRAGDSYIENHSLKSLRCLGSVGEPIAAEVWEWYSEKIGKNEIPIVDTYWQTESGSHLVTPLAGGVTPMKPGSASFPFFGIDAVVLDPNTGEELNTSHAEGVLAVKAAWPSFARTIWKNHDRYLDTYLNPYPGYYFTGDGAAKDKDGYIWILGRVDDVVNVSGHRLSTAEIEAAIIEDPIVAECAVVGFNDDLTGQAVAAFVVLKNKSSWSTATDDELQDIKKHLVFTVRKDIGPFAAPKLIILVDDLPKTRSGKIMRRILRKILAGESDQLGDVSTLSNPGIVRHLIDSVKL
valueKind: Ki

entrySmiles: NCC(=O)Nc1ccc(-n2nc(C(F)(F)F)cc2-c2ccc3c(ccc4ccccc43)c2)cc1
valueKind: Ki
reading: ~2700 nM
